The measured values listed here are drawn from patent US20100035755A1.

- Test system: Kummerowia striata
- Assay Protocol: Weed spectrum, greenhouse pot test
- Format: in vivo
- Test Context: Post-emergence, 50 g ai/ha, two weeks after application
Measure Name: efficacy (0-100 scale)
The reply should be a number, written without any unit.

Compound	Observed Measurement
CCOC(=O)c1cnn(C)c1S(=O)(=O)NC(=O)Nc1nc(OC)cc(OC)n1 [Control chemical No. 1, Pyrazosulfuron ethyl, reference compound]	40
Cc1cc(C)nc(NC(=O)NS(=O)(=O)c2ccccc2C(O)C(C)F)n1 (stereo not shown)	100
COc1nc(C)nc(NC(=O)NS(=O)(=O)c2cscc2C2(CF)OCCO2)n1	100

Switching to the query record.
Measured efficacy (0-100 scale), COc1cc(OC)nc(NC(=O)NS(=O)(=O)c2ncccc2C(F)(F)F)n1 [Control chemical No. 2, Flazasulfuron, reference compound] : 100

###

Each entry below carries its reported phytotoxicity (visual assessment 0-10).
- Test system: Zoysia japonica
- Assay Protocol: Turf grass selectivity, greenhouse pot test
- Type: in vivo
- Test Context: Zoysia japonica, 200 g ai/ha, 4 weeks
The reply should be a number, written without any unit.

Compound	Measure Name	Observed Measurement
CCOC(=O)c1cnn(C)c1S(=O)(=O)NC(=O)Nc1nc(OC)cc(OC)n1 [Control chemical No. 1, Pyrazosulfuron ethyl, reference compound]	phytotoxicity (visual assessment 0-10)	0
Cc1cc(C)nc(NC(=O)NS(=O)(=O)c2ccccc2C(O)C(C)F)n1 (stereo not shown)	phytotoxicity (visual assessment 0-10)	0
COc1nc(C)nc(NC(=O)NS(=O)(=O)c2cscc2C2(CF)OCCO2)n1	phytotoxicity (visual assessment 0-10)	1

Switching to the query record.
Measured phytotoxicity (visual assessment 0-10), COc1cc(OC)nc(NC(=O)NS(=O)(=O)c2ncccc2C(F)(F)F)n1 [Control chemical No. 2, Flazasulfuron, reference compound] : 3

###

Each entry below carries its reported phytotoxicity (visual assessment 0-10).
- Tested on: Perennial rye grass
- Assay Protocol: Turf grass selectivity, greenhouse pot test
- Type: in vivo
- Test Context: 3 g ai/ha, 2 weeks
The reply should be a number, written without any unit.

Below: 3 compounds and their reported phytotoxicity (visual assessment 0-10).
Compound	phytotoxicity (visual assessment 0-10)
COc1nc(C)nc(NC(=O)NS(=O)(=O)c2cscc2C2(CF)OCCO2)n1	3
Cc1cc(C)nc(NC(=O)NS(=O)(=O)c2ccccc2C(O)C(C)F)n1 (stereo not shown)	0
CCOC(=O)c1cnn(C)c1S(=O)(=O)NC(=O)Nc1nc(OC)cc(OC)n1 [Control chemical No. 1, Pyrazosulfuron ethyl, reference compound]	0

Switching to the query record.
Measured phytotoxicity (visual assessment 0-10), COc1cc(OC)nc(NC(=O)NS(=O)(=O)c2ncccc2C(F)(F)F)n1 [Control chemical No. 2, Flazasulfuron, reference compound] : 10

###

Each entry below carries its reported efficacy (0-100 scale).
- Tested on: Trifolium repens
- Assay Protocol: Weed spectrum, greenhouse pot test
- Format: in vivo
- Test Context: Post-emergence, 12 g ai/ha, two weeks after application
The reply should be a number, written without any unit.

Compound	efficacy (0-100 scale)
COc1cc(OC)nc(NC(=O)NS(=O)(=O)c2ncccc2C(F)(F)F)n1 [Control chemical No. 2, Flazasulfuron, reference compound]	80
CCOC(=O)c1cnn(C)c1S(=O)(=O)NC(=O)Nc1nc(OC)cc(OC)n1 [Control chemical No. 1, Pyrazosulfuron ethyl, reference compound]	20
Cc1cc(C)nc(NC(=O)NS(=O)(=O)c2ccccc2C(O)C(C)F)n1 (stereo not shown) [Example 1]	40

Measured efficacy (0-100 scale), COc1nc(C)nc(NC(=O)NS(=O)(=O)c2cscc2C2(CF)OCCO2)n1 [Example 2] : 40

###

- System: Kentucky bluegrass
- Assay Protocol: Turf grass selectivity, greenhouse pot test
- Assay type: in vivo, Poa pratensis
- Test Context: 3 g ai/ha, 2 weeks
Each entry below carries its reported phytotoxicity (visual assessment 0-10).
The reply should be a number, written without any unit.

Below: 3 compounds and their reported phytotoxicity (visual assessment 0-10).
Compound	phytotoxicity (visual assessment 0-10)
CCOC(=O)c1cnn(C)c1S(=O)(=O)NC(=O)Nc1nc(OC)cc(OC)n1 [Control chemical No. 1, Pyrazosulfuron ethyl, reference compound]	0
COc1nc(C)nc(NC(=O)NS(=O)(=O)c2cscc2C2(CF)OCCO2)n1 [Example 2]	3
Cc1cc(C)nc(NC(=O)NS(=O)(=O)c2ccccc2C(O)C(C)F)n1 (stereo not shown) [Example 1]	0

Measured phytotoxicity (visual assessment 0-10), COc1cc(OC)nc(NC(=O)NS(=O)(=O)c2ncccc2C(F)(F)F)n1 [Control chemical No. 2, Flazasulfuron, reference compound] : 10

###

Each entry below carries its reported phytotoxicity (visual assessment 0-10).
- Test system: Kentucky bluegrass
- Assay Protocol: Turf grass selectivity, greenhouse pot test
- Format: in vivo, Poa pratensis
- Test Context: 50 g ai/ha, 2 weeks
The reply should be a number, written without any unit.

Below: 3 molecules and their reported phytotoxicity (visual assessment 0-10).
Molecule	phytotoxicity (visual assessment 0-10)
CCOC(=O)c1cnn(C)c1S(=O)(=O)NC(=O)Nc1nc(OC)cc(OC)n1 [Control chemical No. 1, Pyrazosulfuron ethyl, reference compound]	0
Cc1cc(C)nc(NC(=O)NS(=O)(=O)c2ccccc2C(O)C(C)F)n1 (stereo not shown) [Example 1]	0
COc1cc(OC)nc(NC(=O)NS(=O)(=O)c2ncccc2C(F)(F)F)n1 [Control chemical No. 2, Flazasulfuron, reference compound]	10

Switching to the query record.
Measured phytotoxicity (visual assessment 0-10), COc1nc(C)nc(NC(=O)NS(=O)(=O)c2cscc2C2(CF)OCCO2)n1 [Example 2] : 10

###

- Tested on: Bentgrass
- Assay Protocol: Turf grass selectivity, greenhouse pot test
- Type: in vivo, Agrostris palustris
- Test Context: 100 g ai/ha, 2 weeks
Measure Name: phytotoxicity (visual assessment 0-10)

Below: 3 molecules and their reported phytotoxicity (visual assessment 0-10).
Molecule	phytotoxicity (visual assessment 0-10)
COc1nc(C)nc(NC(=O)NS(=O)(=O)c2cscc2C2(CF)OCCO2)n1 [Example 2]	10
CCOC(=O)c1cnn(C)c1S(=O)(=O)NC(=O)Nc1nc(OC)cc(OC)n1 [Control chemical No. 1, Pyrazosulfuron ethyl, reference compound]	1
COc1cc(OC)nc(NC(=O)NS(=O)(=O)c2ncccc2C(F)(F)F)n1 [Control chemical No. 2, Flazasulfuron, reference compound]	10

Measured phytotoxicity (visual assessment 0-10), Cc1cc(C)nc(NC(=O)NS(=O)(=O)c2ccccc2C(O)C(C)F)n1 (stereo not shown) [Example 1] : 1

###

- Test system: Perennial rye grass
- Assay Protocol: Turf grass selectivity, greenhouse pot test
- Type: in vivo
- Test Context: 100 g ai/ha, 4 weeks
Measure Name: phytotoxicity (visual assessment 0-10)
The reply should be a number, written without any unit.

Compound	phytotoxicity (visual assessment 0-10)
CCOC(=O)c1cnn(C)c1S(=O)(=O)NC(=O)Nc1nc(OC)cc(OC)n1 [Control chemical No. 1, Pyrazosulfuron ethyl, reference compound]	0

Measured phytotoxicity (visual assessment 0-10), COc1cc(OC)nc(NC(=O)NS(=O)(=O)c2ncccc2C(F)(F)F)n1 [Control chemical No. 2, Flazasulfuron, reference compound] : 10

Measured phytotoxicity (visual assessment 0-10), Cc1cc(C)nc(NC(=O)NS(=O)(=O)c2ccccc2C(O)C(C)F)n1 (stereo not shown) : 0

Measured phytotoxicity (visual assessment 0-10), COc1nc(C)nc(NC(=O)NS(=O)(=O)c2cscc2C2(CF)OCCO2)n1 : 10

###

Each entry below carries its reported phytotoxicity (visual assessment 0-10).
- Tested on: Bentgrass
- Assay Protocol: Turf grass selectivity, greenhouse pot test
- Format: in vivo, Agrostris palustris
- Test Context: 25 g ai/ha, 2 weeks
The reply should be a number, written without any unit.

Below: 3 molecules and their reported phytotoxicity (visual assessment 0-10).
Molecule	Tested System	phytotoxicity (visual assessment 0-10)
Cc1cc(C)nc(NC(=O)NS(=O)(=O)c2ccccc2C(O)C(C)F)n1 (stereo not shown)	Bentgrass	0
COc1nc(C)nc(NC(=O)NS(=O)(=O)c2cscc2C2(CF)OCCO2)n1	Bentgrass	10
CCOC(=O)c1cnn(C)c1S(=O)(=O)NC(=O)Nc1nc(OC)cc(OC)n1 [Control chemical No. 1, Pyrazosulfuron ethyl, reference compound]	Bentgrass	0

Switching to the query record.
Measured phytotoxicity (visual assessment 0-10), COc1cc(OC)nc(NC(=O)NS(=O)(=O)c2ncccc2C(F)(F)F)n1 [Control chemical No. 2, Flazasulfuron, reference compound] : 10

###

- Tested on: Digitaria sanguinalis
- Assay Protocol: Weed spectrum, greenhouse pot test
- Type: in vivo
- Test Context: Pre-emergence, 12 g ai/ha, two weeks after application
Each entry below carries its reported efficacy (0-100 scale).
The reply should be a number, written without any unit.

Measured efficacy (0-100 scale), Cc1cc(C)nc(NC(=O)NS(=O)(=O)c2ccccc2C(O)C(C)F)n1 (stereo not shown) [Example 1] : 60

Measured efficacy (0-100 scale), CCOC(=O)c1cnn(C)c1S(=O)(=O)NC(=O)Nc1nc(OC)cc(OC)n1 [Control chemical No. 1, Pyrazosulfuron ethyl, reference compound] : 0

Measured efficacy (0-100 scale), COc1nc(C)nc(NC(=O)NS(=O)(=O)c2cscc2C2(CF)OCCO2)n1 [Example 2] : 95

Measured efficacy (0-100 scale), COc1cc(OC)nc(NC(=O)NS(=O)(=O)c2ncccc2C(F)(F)F)n1 [Control chemical No. 2, Flazasulfuron, reference compound] : 60
